Field: pest or weed control at 125 g/ha. Provide a value for each of the molecules that follow.
- Tested on: pigweed (Amaranthus retroflexus)
- TEST DETAILS: Test A postemergence
- Type: in vivo
- CONDITION DETAILS: Amaranthus retroflexus, post-emergence, 240 h, 125 g ai/ha, postemergence, visual injury vs untreated controls after approx. 10 d; 0 = no effect, 100 = complete control; read-out: Pigweed plant response rating (0 to 100 scale)
Report the value in % with no unit label.

Form field, pest or weed control at 125 g/ha with pigweed (Amaranthus retroflexus), item O=C1NCC[C@H](c2cccc(Cl)c2)[C@H]1C(=O)Nc1ccccc1F [Compound 1159] : 0

Form field pest or weed control at 125 g/ha for item Cc1c(F)cccc1NC(=O)[C@H]1C(=O)N(C)C[C@@H]1c1ccc(F)c(Br)c1 [Compound 1211] on pigweed (Amaranthus retroflexus): 30

Observed pest or weed control at 125 g/ha, pigweed (Amaranthus retroflexus), Cc1cc([C@H]2CNC(=O)[C@@H]2C(=O)Nc2ccccc2C(F)(F)F)ccc1Cl [Compound 1245] : 0

Measured pest or weed control at 125 g/ha (pigweed (Amaranthus retroflexus)), entry COc1cc(C(F)(F)F)ccc1[C@H]1CN(C)C(=O)[C@@H]1C(=O)Nc1cccc(F)c1C [Compound 1205] : 0

Entry O=C1NC[C@H](c2ccc(C(F)(F)F)cc2)C1C(=O)Nc1ccccc1CO (stereo partly drawn) [Compound 1242] ; assay system pigweed (Amaranthus retroflexus); pest or weed control at 125 g/ha recorded at 0

Fill in: pigweed (Amaranthus retroflexus) pest or weed control at 125 g/ha for Cc1c(F)cccc1NC(=O)[C@H]1C(=O)N(C)C[C@@H]1c1ccc2c(c1)OC(F)(F)O2 [Compound 1252] = 0

Recorded pest or weed control at 125 g/ha for CN1C[C@H](c2ccc(F)c(Br)c2)[C@@H](C(=O)Nc2cccc(F)c2F)C1=O [Compound 1234] on pigweed (Amaranthus retroflexus) was 20

Kindly note: pigweed (Amaranthus retroflexus), CN1C[C@H](c2ccc(F)c(C#N)c2)[C@@H](C(=O)Nc2ccccc2F)C1=O [Compound 1254] , pest or weed control at 125 g/ha value reported: 0

The observed pest or weed control at 125 g/ha for CN1C[C@H](c2ccc(C(F)F)cc2)[C@@H](C(=O)Nc2ccccc2S(C)(=O)=O)C1=O [Compound 1175] when tested with pigweed (Amaranthus retroflexus) stands at 20

* * *

Give measured Plant response rating, Foxtail, Giant for each item. Keep answers brief.
- Test system: giant foxtail (Setaria faberii)
- TEST DETAILS: Test A preemergence
- Assay type: in vivo
- CONDITION DETAILS: 125 g ai/ha, preemergence; 0 to 100 scale (0 no effect, 100 complete control)
Lab note: record just the number, no unit beside it.

Field Plant response rating, Foxtail, Giant (entry COc1c(F)ccc(NC(=O)C2C(=O)NCC2c2ccc(F)c(F)c2)c1F (stereo not drawn) ) reads 80

Entry COc1cccc(C2CNC(=O)C2C(=O)Nc2cccc(F)c2F)c1 (racemic) — recorded Plant response rating, Foxtail, Giant = 50

The recorded Plant response rating, Foxtail, Giant for entry O=C1NCC(c2ccc(Br)cc2)C1C(=O)Nc1cccc(F)c1 (stereo not drawn) equals 80

// Plant response rating, Foxtail, Giant lookup, molecule = CN1CC(c2ccc(Cl)cc2)C(C(=O)Nc2ccccc2F)C1=O (stereo not drawn) , result: 90

Entry O=C1NCC(c2ccc(F)c(F)c2)C1C(=O)Nc1ccc(F)cc1Cl (stereo not drawn) ; Plant response rating, Foxtail, Giant = 80

Short answer for CN1CC(c2ccc3c(c2)OC(F)(F)O3)C(C(=O)Nc2ccccc2F)C1=O (stereo not drawn) : Plant response rating, Foxtail, Giant was 90

Measured Plant response rating, Foxtail, Giant, O=C(Nc1cccc(F)c1F)C1C(=O)N(c2ccccc2)CC1c1cccc(C(F)(F)F)c1 (stereo not drawn) : 0

Looking up Cc1ccc(C2CN(C)C(=O)C2C(=O)Nc2cccc(F)c2F)cc1F (stereo not drawn) , I found its Plant response rating, Foxtail, Giant recorded as 90

Lab book: Plant response rating, Foxtail, Giant of CN1CC(c2ccc(C(F)(F)F)cc2)C(C(=S)Nc2ccccc2F)C1=O (stereo not drawn) noted as 90
